testedTarget: neurokinin NK2 receptor (Cavia porcellus, UniProt Q64077)
Construct: Using healthy guinea pigs (body weight, 350 to 550 g; Hartley male guinea pigs); from tissue; host or cells: live anaesthetised Hartley male guinea pigs (airway, in vivo)
Sequence (Q64077 whole entry): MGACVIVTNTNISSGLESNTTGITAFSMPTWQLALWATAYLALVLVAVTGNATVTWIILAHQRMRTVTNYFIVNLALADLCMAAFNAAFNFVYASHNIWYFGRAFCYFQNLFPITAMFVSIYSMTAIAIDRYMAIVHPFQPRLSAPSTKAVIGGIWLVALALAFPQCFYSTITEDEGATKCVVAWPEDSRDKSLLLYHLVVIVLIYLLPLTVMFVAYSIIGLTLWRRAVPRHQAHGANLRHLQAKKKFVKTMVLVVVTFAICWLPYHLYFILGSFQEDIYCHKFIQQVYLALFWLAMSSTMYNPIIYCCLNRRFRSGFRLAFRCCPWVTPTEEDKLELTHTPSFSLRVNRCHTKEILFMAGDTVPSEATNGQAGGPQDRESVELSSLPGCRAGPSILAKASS
methodSummary: Effect of suppressing neurokinin A-induced airway contraction (in vivo, intratracheal administration)
Parameters: species or system guinea pig
studyConditions: guinea pig; guinea pigs, intratracheal administration 60 minutes before 4 μg/kg i.v. NKA; AUC of increase in airway pressure over 10 minutes; read-out: ID50 (the source's name)
Counter-ions that a name gives are not always drawn.
Property: ED50; scope: individual compounds
measuredProperty: ED50 (mg/kg)

compound: CN(CCN1CCC(OC(=O)Nc2ccccc2-c2ccccc2)CC1)C(=O)COCCCNc1ccc(C(=O)N(C)CCCN(C)C(=O)CO[C@H]2Cc3ccccc3C23CCN(CC[C@@]2(c4ccc(F)cc4)CN(C(=O)c4cc(C(F)(F)F)cc(C(F)(F)F)c4)CO2)CC3)cc1 [Example 27, trihydrochloride]
measuredProperty: ED50
quantitativeReadout: 0.0135
//
compound: CN(CCN1CCC(OC(=O)Nc2ccccc2-c2ccccc2)CC1)C(=O)CCCN(C)c1ccc(C(=O)N(C)CCCN(C)C(=O)CO[C@H]2Cc3ccccc3C23CCN(CC[C@@]2(c4ccc(F)cc4)CN(C(=O)c4cc(C(F)(F)F)cc(C(F)(F)F)c4)CO2)CC3)cc1 [Example 36, trihydrochloride]
measuredProperty: ED50
quantitativeReadout: 0.0168
//
compound: Cc1cc(NCCCCCC(=O)N(C)CCN2CCC(OC(=O)Nc3ccccc3-c3ccccc3)CC2)sc1C(=O)N(C)CCCN(C)C(=O)CO[C@H]1Cc2ccccc2C12CCN(CC[C@@]1(c3ccc(F)cc3)CN(C(=O)c3cc(C(F)(F)F)cc(C(F)(F)F)c3)CO1)CC2 [Example 30, trihydrochloride]
measuredProperty: ED50
quantitativeReadout: 0.0632
//
compound: CN(CCN1CCC(OC(=O)Nc2ccccc2-c2ccccc2)CC1)C(=O)CCCCCNCc1ccc(C(=O)N(C)CCCN(C)C(=O)CO[C@H]2Cc3ccccc3C23CCN(CC[C@@]2(c4ccc(F)cc4)CN(C(=O)c4cc(C(F)(F)F)cc(C(F)(F)F)c4)CO2)CC3)s1
measuredProperty: ED50
quantitativeReadout: 0.0049
